Hey, just so you know, these numbers are from the supplement of paper PMC10065799.

Target: c-Src SH2
Assay: SH2 binding enrichment of the phosphorylated peptide, bacterial display (enrichment ratio); higher = better substrate or ligand; peptides without Tyr show the background
Reported Metric: SH2 binding enrichment

Monomer Sequence | Reported Metric | Value Measured
ATPKGYEPDAS [OTC_Y223] | SH2 binding enrichment | 0.557
FRDMDYRSFPH [RBM10_Y41_R46H_YF] | SH2 binding enrichment | 0.565
VVIVLYFSLWK [SLC6A2_Y249] | SH2 binding enrichment | 1.22
VRFMANTDETF [F8_Y450_Y450N] | SH2 binding enrichment | 0.452
NTFEKYLGEEF [TF_Y669_YF] | SH2 binding enrichment | 0.378

a. GLVFLYMEKNQ [PRELP_Y156]
b. LAVGDYMRRQK [ATM_Y1915_V1913G]
Lab log: flag the item ( a or b ) with the smaller SH2 binding enrichment figure. # respond with the chosen item's label
b
(b: 0.37, a: 0.634)

A. NPQKSYFIRLY [WAS_Y83]
B. HGQVNYEEFVQ [CALM2_Y139_D134H]
Could you check which of A and B has a smaller value for SH2 binding enrichment? Answer by stating the label of the chosen item.
A
(A: 0.517, B: 0.828)

I. GEDLSYGDLPP [IRS1_Y151_V154L]
II. IGMLIYFARKA [VCAM1_Y718_I716L]
III. LAIERYVVVSK [RHO_Y136_C140S]
IV. NTYEKYLEEEY [TF_Y669_G671E]
Number of sequences to sort: 4. Sort criterion: SH2 binding enrichment, ascending. Sort and list the labels as requested.
I, II, III, IV

A. VDSLRYIFPKL [EIF2B3_Y92_A87V_YF]
B. ARRHPYFFAPE [ALB_Y172_Y174F]
C. AVVEPYNSLLT [TUBA1A_Y185_I188L]
Please put the entries in order of rising SH2 binding enrichment. Please respond by ranking the labels in the order requested.
B, A, C

----------
Biological target: FGFR1 (UniProt P11362)
Sequence (P11362 whole entry, looked up): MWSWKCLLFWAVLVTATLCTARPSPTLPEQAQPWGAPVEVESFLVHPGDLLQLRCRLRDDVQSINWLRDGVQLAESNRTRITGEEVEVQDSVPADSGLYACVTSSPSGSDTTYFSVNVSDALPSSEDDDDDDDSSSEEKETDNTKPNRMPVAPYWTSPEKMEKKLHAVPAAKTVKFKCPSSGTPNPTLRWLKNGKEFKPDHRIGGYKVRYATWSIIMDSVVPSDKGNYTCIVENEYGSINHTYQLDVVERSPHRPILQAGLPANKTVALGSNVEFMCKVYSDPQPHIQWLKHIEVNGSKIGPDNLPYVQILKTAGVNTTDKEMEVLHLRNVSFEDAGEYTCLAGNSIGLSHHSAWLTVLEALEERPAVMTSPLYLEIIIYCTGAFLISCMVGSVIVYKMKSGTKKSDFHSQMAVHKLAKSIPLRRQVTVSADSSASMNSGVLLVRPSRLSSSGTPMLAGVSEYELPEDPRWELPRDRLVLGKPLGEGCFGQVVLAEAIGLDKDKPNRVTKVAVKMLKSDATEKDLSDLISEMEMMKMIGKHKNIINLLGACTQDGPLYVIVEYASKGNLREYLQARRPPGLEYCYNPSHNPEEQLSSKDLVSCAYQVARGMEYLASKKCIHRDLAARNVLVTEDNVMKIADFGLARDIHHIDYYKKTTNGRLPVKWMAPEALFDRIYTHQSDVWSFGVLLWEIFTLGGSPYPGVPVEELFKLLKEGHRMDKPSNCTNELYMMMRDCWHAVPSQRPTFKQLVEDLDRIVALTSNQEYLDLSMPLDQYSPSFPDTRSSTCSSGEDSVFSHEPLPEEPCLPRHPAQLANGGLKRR
Assay: phosphorylation enrichment, bacterial display (enrichment ratio); higher = better substrate or ligand; peptides without Tyr show the background
Reported Metric: phosphorylation enrichment
Lab note: jot down the number only; don't add units.

Check out these entries, answers already filled in.
Monomer Sequence | Tested Target | Value Measured
AGHEEYSAMRD [KRAS_Y64_Q61H] | FGFR1 (UniProt P11362) | 0.51
CPTIHYNFMCN [TP53_Y234_T230P_YF] | FGFR1 (UniProt P11362) | 0.687
QADVVYVNTQL [MERTK_Y872_I871V] | FGFR1 (UniProt P11362) | 0.88

Look up and report phosphorylation enrichment, with FGFR1 (UniProt P11362) as system, for WKGSWYSMRKM [FGB_Y475]
0.676

Return reported phosphorylation enrichment for target or system FGFR1 (UniProt P11362), item LRAGVYHEKDQ [DNM2_Y626_P627H] .
0.635

Find phosphorylation enrichment for TEQMAYCPIQC [SHC4_Y403] on FGFR1 (UniProt P11362) and write it down.
0.609

----------
Molecular target: c-Src SH2;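 also: peptide library displayed on the E. coli surface as eCPX fusions, selected cells deep-sequenced, score is each peptide's frequency after selection divided by its frequency in the input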
Test: SH2 binding enrichment of the phosphorylated peptide, bacterial display (enrichment ratio); higher = better substrate or ligand; peptides without Tyr show the background
Reported Metric: SH2 binding enrichment

Answered cases to consult:
Monomer Sequence | SH2 binding enrichment
SVTSTYSPALN [TP53_Y126_C124S] | 0.491
YKIYRYTLNDN [FN1_Y1975_L1974R] | 0.534
RPPFTYATLIH [FOXP3_Y342_R347H] | 1.98
DVLVEYQEEGR [GNS_Y416_G418E] | 0.505
FAELMYTGFWH [ASS1_Y322_V321M] | 0.538

1. KIRDWYQRQRP [KRT14_Y151]
2. CPTIHYNFMCN [TP53_Y234_T230P_YF]
3. CTTIPYNYMCN [TP53_Y234_H233P]
Please produce an ascending ranking of these sequences based on SH2 binding enrichment. // respond by listing labels in the order requested
1, 2, 3
(1: 0.523, 2: 2.71, 3: 5.64)

----------
Biological target: Fyn (UniProt P06241)
Sequence (P06241 whole entry, looked up): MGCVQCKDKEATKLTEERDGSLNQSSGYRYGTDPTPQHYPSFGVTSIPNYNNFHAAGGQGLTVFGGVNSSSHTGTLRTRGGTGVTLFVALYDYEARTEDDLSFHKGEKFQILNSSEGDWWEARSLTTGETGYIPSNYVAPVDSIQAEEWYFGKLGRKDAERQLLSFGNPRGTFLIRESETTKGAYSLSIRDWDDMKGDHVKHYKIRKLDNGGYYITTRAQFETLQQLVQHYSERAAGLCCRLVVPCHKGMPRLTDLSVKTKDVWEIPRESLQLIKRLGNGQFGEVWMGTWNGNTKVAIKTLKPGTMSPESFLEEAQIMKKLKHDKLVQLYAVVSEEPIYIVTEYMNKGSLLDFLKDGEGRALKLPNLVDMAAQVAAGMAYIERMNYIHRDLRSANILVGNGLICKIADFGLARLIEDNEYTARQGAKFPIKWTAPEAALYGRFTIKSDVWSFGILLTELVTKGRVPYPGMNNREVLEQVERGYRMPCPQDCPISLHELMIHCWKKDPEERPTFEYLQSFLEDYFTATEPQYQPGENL
Assay: phosphorylation enrichment, bacterial display (enrichment ratio); higher = better substrate or ligand; peptides without Tyr show the background
Reported values of phosphorylation enrichment for individual entries
Number only, no unit.

Monomer Sequence | phosphorylation enrichment
AEMTGYVMTRW [MAPK13_Y182_V184M] | 0.493
DLVSEYQQFQD [TUBB3_Y422_YF] | 0.675

# return recorded phosphorylation enrichment for entry GIVEDYRPTFY [ACVRL1_Y421_P424T]
0.513

Supply phosphorylation enrichment value. Item: QEALEYFMKQV [PIK3CA_Y1038_M1043V]
0.382

Please list phosphorylation enrichment recorded for the sequence AIQDAYMHITS [ADCY10_Y318]
0.517

Check the records and state phosphorylation enrichment for DSMQSYDLDFP [UNC13B_Y243_YF]
0.48

Item YEEDSYVKRSQ [RET_Y905] : provide phosphorylation enrichment
0.489

Return value of phosphorylation enrichment for input ATPKGYEPDAS [OTC_Y223] , no commentary.
0.501

----------
List of phosphorylation enrichment values.
Target: EPHB1 (UniProt P54762)
Sequence (P54762 whole entry, looked up): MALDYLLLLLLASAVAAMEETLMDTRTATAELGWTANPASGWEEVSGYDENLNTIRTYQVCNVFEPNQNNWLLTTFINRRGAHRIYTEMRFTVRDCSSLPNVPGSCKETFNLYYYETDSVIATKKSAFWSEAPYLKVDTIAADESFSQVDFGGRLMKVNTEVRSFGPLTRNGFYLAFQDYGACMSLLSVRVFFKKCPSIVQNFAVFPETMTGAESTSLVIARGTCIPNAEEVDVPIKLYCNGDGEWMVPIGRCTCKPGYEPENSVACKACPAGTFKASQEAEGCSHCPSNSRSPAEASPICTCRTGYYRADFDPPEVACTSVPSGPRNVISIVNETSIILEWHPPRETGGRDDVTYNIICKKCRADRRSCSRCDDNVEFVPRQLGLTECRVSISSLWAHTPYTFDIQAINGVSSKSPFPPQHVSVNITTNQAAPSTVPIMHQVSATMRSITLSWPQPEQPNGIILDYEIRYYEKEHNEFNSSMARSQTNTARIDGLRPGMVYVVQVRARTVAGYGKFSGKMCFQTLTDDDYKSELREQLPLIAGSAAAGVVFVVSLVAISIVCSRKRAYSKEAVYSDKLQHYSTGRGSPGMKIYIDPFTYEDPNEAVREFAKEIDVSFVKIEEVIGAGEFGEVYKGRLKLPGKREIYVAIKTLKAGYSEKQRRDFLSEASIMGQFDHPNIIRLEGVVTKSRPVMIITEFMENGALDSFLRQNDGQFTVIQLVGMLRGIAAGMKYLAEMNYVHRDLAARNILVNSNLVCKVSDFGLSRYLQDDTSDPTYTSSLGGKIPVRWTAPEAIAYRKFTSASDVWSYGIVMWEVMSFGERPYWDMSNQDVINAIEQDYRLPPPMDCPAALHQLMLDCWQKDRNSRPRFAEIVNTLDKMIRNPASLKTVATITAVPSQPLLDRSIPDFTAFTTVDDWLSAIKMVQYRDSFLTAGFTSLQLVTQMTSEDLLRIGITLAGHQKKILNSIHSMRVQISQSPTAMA
Experiment: phosphorylation enrichment, bacterial display (enrichment ratio); higher = better substrate or ligand; peptides without Tyr show the background
Answer as a number with no unit attached.

Past entries and their recorded results:
Monomer Sequence | Value Measured
NPPGMYPVTGP [LPP_Y346] | 0.375
TVQVAYYTMMM [SPATA17_Y83] | 3.4
ATATEYHTTSH [SLC4A1_Y46_D45E] | 0.316
VIEYSYTSADG [DHCR7_Y382_C380Y] | 0.699

Given the sequence GDLTDYLMKIL [ACTA1_Y190_R185G] , write its reported phosphorylation enrichment.
0.508

Name the recorded phosphorylation enrichment of the item GEDLSYGDLPP [IRS1_Y151_V154L] in your answer.
0.661

Name the recorded phosphorylation enrichment of the sequence listed here: LKVQVYILGRE [ASS1_Y359_G356V]
1.58

Identify measured phosphorylation enrichment associated with EDSEFYRAFEE [CASQ2_Y179_K180R_YF]
0.582

Give the measured phosphorylation enrichment for PQDSAYHSGIQ [FLG_Y3940_S3935P]
0.652

Retrieve phosphorylation enrichment measured for VIEQRYNETWL [SLC2A4_Y56_S55R] and print it.
0.467

Respond only with phosphorylation enrichment recorded for RGGDSYGGPPR [RBMX_Y190_R187G]
0.399

Determine from records and report phosphorylation enrichment for AGHEEYSAMRD [KRAS_Y64_Q61H]
0.462

Quote phosphorylation enrichment reported for KKHIPHREHKS [CSNK1G2_Y206_Y206H] please.
2.61

Determine its reported phosphorylation enrichment: NTFEKYLGEEF [TF_Y669_YF]
0.587

For the sequence LARNMYDKEFF [MET_Y1230_D1228N_YF] , give its measured phosphorylation enrichment value.
0.706

Specify reported phosphorylation enrichment for the sequence shown: YEEDSYVKRSQ [RET_Y905]
0.626

Provide phosphorylation enrichment value for the following sequence: GKGGSYSKAEW [HLA-E_Y341]
0.481

Supply recorded phosphorylation enrichment for VDSNPYSRLMA [UBA5_Y53] here.
0.465

----------
Test system: AncSZ
Experiment: phosphorylation enrichment, bacterial display (enrichment ratio); higher = better substrate or ligand; peptides without Tyr show the background
We begin with a simple list: items and their reported phosphorylation enrichment.
Write no unit; give the number alone.

Example sequences with recorded phosphorylation enrichment:
Monomer Sequence | phosphorylation enrichment
KCCCIYEKPRS [PPP1R11_Y64_A69S] | 1.86
VIESSYQVAKA [CPT1B_Y534] | 0.7
IRFPPYTDWNQ [ALDH3B2_Y365_H361R_YF] | 0.741

Read off the recorded phosphorylation enrichment for HVLEEYKPKQG [SAXO2_Y37_P34L]
0.5

Identify measured phosphorylation enrichment corresponding to VVIVLYFSLWK [SLC6A2_Y249]
0.703

Output phosphorylation enrichment of SSTAMYSAAGR [PSMB1_Y8_P11A]
0.451

Determine from records and report phosphorylation enrichment for PSAVAYPKRSQ [MARK3_Y432_V429A]
0.697

----------
Target: Hck (UniProt P08631)
Sequence (P08631 whole entry, looked up): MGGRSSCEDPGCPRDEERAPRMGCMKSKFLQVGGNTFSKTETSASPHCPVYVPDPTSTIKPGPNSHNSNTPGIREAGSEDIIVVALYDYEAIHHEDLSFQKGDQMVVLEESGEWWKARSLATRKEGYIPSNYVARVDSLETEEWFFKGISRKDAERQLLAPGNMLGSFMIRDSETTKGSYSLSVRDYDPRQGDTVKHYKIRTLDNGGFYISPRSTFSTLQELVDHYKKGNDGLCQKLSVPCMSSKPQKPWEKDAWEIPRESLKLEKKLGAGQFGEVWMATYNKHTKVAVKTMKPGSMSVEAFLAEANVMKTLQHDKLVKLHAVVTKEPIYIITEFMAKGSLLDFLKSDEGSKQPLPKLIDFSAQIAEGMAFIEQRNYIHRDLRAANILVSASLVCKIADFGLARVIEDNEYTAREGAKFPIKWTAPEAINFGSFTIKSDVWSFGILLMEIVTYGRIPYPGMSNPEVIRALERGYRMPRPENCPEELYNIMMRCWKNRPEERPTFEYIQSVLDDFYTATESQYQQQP
Experiment: phosphorylation enrichment, bacterial display (enrichment ratio); higher = better substrate or ligand; peptides without Tyr show the background
In this section we review reported phosphorylation enrichment values for a set of sequences.
Provide a numeric answer; units are not to be included.

// solved cases for phosphorylation enrichment follow
Monomer Sequence | phosphorylation enrichment
SVVVPYESPEV [TP53_Y220_P222S] | 0.566
SSPQLYLVPFL [TAF4_Y652_P651L] | 0.907
GGEEFYVHFVG [KAT8_Y90_R86G_YF] | 0.612
PNAYIYVVQLP [L1CAM_Y420_A415P] | 0.832

Indicate the recorded phosphorylation enrichment value for this sequence: HLLRIYFDITD [MMP27_Y307_W304L_YF]
0.733

Complete the entry with phosphorylation enrichment for ATPKGYEPDAS [OTC_Y223]
0.444
